assay: Agonist activity at human GPR120 long isoform transfected in HEK293 cells assessed as calcium flux by FLIPR assay; format: cell-based
pEC50: −log10 of the molar value.
recorded endpoint: pEC50

These solved cases illustrate the format of a correct answer.
CCc1ccc(-c2cc(F)sc2COc2ccc(CCC(=O)O)c(C)c2C)cc1 7.62
Cc1c(CCC(=O)O)ccc(OCc2sc(F)cc2-c2ccc(Cl)cc2)c1C 7.31

(I) Cc1c(CCC(=O)O)ccc(OCc2c(-c3ccc(Cl)cc3)nsc2C(F)(F)F)c1C
(II) O=C(O)CCc1cc(F)c(OCc2c(C3CCCC3)nsc2C(F)(F)F)c(F)c1
(III) Cc1ccccc1-c1snc(Cl)c1COc1c(F)cc(CCC(=O)O)cc1F
Q: Rank the items in ascending order with respect to pEC50. Could you list the labels in the order requested?
Ans: III, I, II

====

assay: Agonist activity at human GPR120 long isoform transfected in CHO-K1 cells by beta-arrestin recruitment assay; format: cell-based
pEC50: −log10 of the molar value.
recorded endpoint: pEC50

These solved cases illustrate the format of a correct answer.
O=C(O)CCc1cc(F)c(OCc2c(C3CCCC3)nsc2C(F)(F)F)c(F)c1 6.56
CCc1ccc(-c2cc(F)sc2COc2ccc(CCC(=O)O)c(C)c2C)cc1 6.66

(A) Cc1c(CCC(=O)O)ccc(OCc2c(-c3ccc(Cl)cc3)nsc2C(F)(F)F)c1C
(B) Cc1ccccc1-c1snc(Cl)c1COc1c(F)cc(CCC(=O)O)cc1F
Q: Lab notebook, comparison: A versus B , higher pEC50 goes to which? Lab log: write the label of the selected item as the result.
Ans: A
(A: 6.85, B: 6.49)
